Target: Nuclear receptor coactivator 1 (Homo sapiens)
Test: SRC1 coactivator transcriptional activity inhibitors, confirmation, cell-based, luminescence, quadruplicate (AID 588820);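 note: 0% = DMSO wells and 100% = gossypol 36 µM treated wells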
Settings: HEK293 GAL4-SRC1 luciferase reporter, at 3.6 µM
Active and inactive are the calls of the source.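 Rule for the calls: active = mean inhibition above 46.68%, the untreated control wells mean plus 3 SD; inactive = the rest.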
Result category, one only: label 1 = active, label 0 = inactive

These recorded examples may help you get a feel for the data.
{"compound": "Cc1sc2ncn3ncnc3c2c1C", "class.name": "label 0"}
{"compound": "O=C(COc1ccc(F)cc1Cl)Nc1ccc(N2CCOCC2)cc1N1CCOCC1", "class.name": "label 0"}
{"compound": "c1ccc2c(c1)ccc1ncccc12", "class.name": "label 0"}
{"compound": "O=C(NCCc1ccccc1F)c1ccc2c(c1)OCCO2", "class.name": "label 0"}

Ask | Answer briefly: the call reported for O=C(Nc1ccc2c(c1)OCCO2)C(c1cc2ccccc2o1)N1CCN(c2ccc(F)cc2)CC1 (stereo unspecified) in this assay.
Reply | label 0

* * *

Molecular target: Nuclear receptor coactivator 2 (Homo sapiens)
Test: SRC2 coactivator transcriptional activity inhibitors, confirmation, cell-based, luminescence, HEK293, triplicate (AID 652008);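 note: 0% = DMSO-treated cells and 100% = Gossypol at 36 µM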
Details: HEK293 GAL4-SRC2 luciferase reporter, at 8.9 µM, hits give high values
metric.name: inhibition (%)
Response body: numeric value in %, unit text excluded.

Ask | What value of inhibition has been recorded for this entry: O=C(N=C1SC2CS(=O)(=O)CC2N1Cc1ccccc1)C1CCCO1 (stereo unspecified)
Reply | -2.87

* * *

Test: VP16 transactivation inhibitors, counter-screen for SRC1 inhibitor project, cell-based, luminescence, high throughput (AID 588824)
Settings: cell-based VP16 transactivation luciferase luminescence; at 3.6 µM
Calls of active or inactive are those of the source. Cut-off read from the data, not from the text of the source: active = inhibition above about 25%; inactive = the rest.
Response enum: true (1) for active, false (0) for inactive

Answered cases to consult:
{"compound": "COc1ccc(/C=N/NC(=S)Nc2ccccc2[N+](=O)[O-])cc1O", "class.name": "false (0)"}
{"compound": "COC(=O)c1cccc(NC(=O)c2ccc[n+]([O-])c2)c1", "class.name": "false (0)"}
{"compound": "COc1ccc(C(O)(C(C)C)C(CN2CCOCC2)c2ccc(Cl)cc2)cc1 (configuration not stated)", "class.name": "false (0)"}

Ask | # lookup: test call for N=C1C=CC(=C(c2ccc(N)cc2)c2ccc(N)cc2)C=C1
Reply | true (1)

Ask | Record lookup: outcome of this test for O=C(NCC[C@@H]1C[C@@H]2C=C[C@H]1C2)c1cc(COc2ccc(F)cc2F)on1 ?
Reply | false (0)

Ask | Dear all, I need the recorded test outcome for O=C(CNC(=O)c1cccc(F)c1)N/N=C/c1cc(Br)ccc1OC(=O)/C=C/c1ccco1 , thank you.
Reply | false (0)

Ask | Per the assay record, what outcome was assigned to O=C(O)c1ccc(N/N=C/c2ccc3nccnc3c2)cc1 ?
Reply | false (0)

Ask | # outcome recorded in this test, key = Oc1cccc2cc(Nc3ccccc3)cnc12
Reply | true (1)

Ask | # outcome recorded in this test, key = CCCN(CC)c1ncnc2[nH]ncc12
Reply | true (1)

Ask | Per the records of this test, what outcome belongs to C(=N\Nc1ccc2ccccc2n1)/c1ccc2c(c1)OCCO2 ?
Reply | false (0)

Ask | Test call for this compound, please: Cc1ccc(C(=O)C(C(=O)/C=C/c2ccccc2)=C2SCCCS2)cc1
Reply | true (1)

Ask | Recorded call for COc1ccc(-c2nc(-c3ccc(NC(=O)c4ccncc4)cc3)no2)cc1OC ?
Reply | true (1)

Ask | Tell me the recorded outcome of this test for COc1ccc(OCCN2CCN(C(=O)c3ccc(OC(F)F)c(OC)c3)CC2)cc1 .
Reply | false (0)

Ask | Returns: the outcome recorded for C=C1C(=O)[C@@]23[C@H](O)C[C@@H]4C(C)(C)CC[C@H](O)[C@@]4(C)[C@@H]2CC[C@@H]1[C@H]3O in this assay.
Reply | true (1)
